target under test: T1, Sla1-2, P32790
T1 sequence (P32790 60-140, looked up): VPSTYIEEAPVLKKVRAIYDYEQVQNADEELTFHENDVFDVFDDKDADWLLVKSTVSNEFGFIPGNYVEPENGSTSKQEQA
method description: SPOT array
condition: median of control spots 712
measured attribute: SPOT intensity

binder=ALKQKKIPPPFKPHL measured_attribute="SPOT intensity" assay_value=0
binder=NFFRKKLGIPRKLKR measured_attribute="SPOT intensity" assay_value=0
binder=QHQQRQPKRPKRYSL measured_attribute="SPOT intensity" assay_value=5
binder=EVTPKVPERPSRRKT measured_attribute="SPOT intensity" assay_value=0
binder=NPTKSPPPPPSPSTM measured_attribute="SPOT intensity" assay_value=0
binder=PPIPNAPLSPAPAVP measured_attribute="SPOT intensity" assay_value=0
binder=NILKRRPLKLEAPSK measured_attribute="SPOT intensity" assay_value=0
binder=ILARAILTIPRVLDK measured_attribute="SPOT intensity" assay_value=6
binder=PHNPSPFFPPPDFND measured_attribute="SPOT intensity" assay_value=0
binder=KRKRFNLLLPKPYLT measured_attribute="SPOT intensity" assay_value=2
binder=LRWRHKFFLPAIAAI measured_attribute="SPOT intensity" assay_value=0
binder=VTHRLRISIPGITGR measured_attribute="SPOT intensity" assay_value=4
binder=KRNRLKILLPFLEQS measured_attribute="SPOT intensity" assay_value=0
binder=DAPASKPSVPPRNYF measured_attribute="SPOT intensity" assay_value=0
binder=LLIRWLILMPLVGSR measured_attribute="SPOT intensity" assay_value=3
